system: ATP; assay: switch fluorescence ratio, 500 uM ATP over buffer (Cy3 cluster intensity, sum of 5 cycles each) (fold (ratio)); higher = stronger signal-on switching upon ATP binding; sequences stand for … in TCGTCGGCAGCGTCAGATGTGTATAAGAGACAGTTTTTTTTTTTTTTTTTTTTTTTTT…TC; details: aptamer strand: ATP DNA aptamer (quencher-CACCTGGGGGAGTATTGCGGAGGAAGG + anchor), 100 nM annealed; ATP concentration: 500 uM;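 also: ATP exposure 15 min at 22 °C before imaging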
Exercise: state measured switch fluorescence ratio for each of the sequences provided.

Param item: `GCCTACTGTT` ; param system: ATP; output switch fluorescence ratio: 0.985

Param item: `GCTACTACTG` ; param system: ATP; output switch fluorescence ratio: 1.05

Param item: `ACGTTAAGTG` ; param system: ATP; output switch fluorescence ratio: 1

Param item: `TGTTTGGGTA` ; param system: ATP; output switch fluorescence ratio: 1

Param item: `CCAGGGGTGG` ; param system: ATP; output switch fluorescence ratio: 1.02

Param item: `CACATTACAT` ; param system: ATP; output switch fluorescence ratio: 1.28

Param item: `TCTGATGTGA` ; param system: ATP; output switch fluorescence ratio: 1.08

Param item: `GGGGGACGCT` ; param system: ATP; output switch fluorescence ratio: 0.972

Param item: `GTGCCCGGAT` ; param system: ATP; output switch fluorescence ratio: 0.985

Param item: `AAGGGGTATC` ; param system: ATP; output switch fluorescence ratio: 1.02

Param item: `GTTATAGTCG` ; param system: ATP; output switch fluorescence ratio: 0.999

Param item: `AGATCTATTG` ; param system: ATP; output switch fluorescence ratio: 1.03

Param item: `CACGGGTGGC` ; param system: ATP; output switch fluorescence ratio: 1.15

Param item: `TATTAAATTG` ; param system: ATP; output switch fluorescence ratio: 0.997

Param item: `GCACTGGTGG` ; param system: ATP; output switch fluorescence ratio: 1.02

Param item: `AAATAGGTGA` ; param system: ATP; output switch fluorescence ratio: 1.05

Param item: `TTTGAAGGAC` ; param system: ATP; output switch fluorescence ratio: 0.992

Param item: `TAAGAGGGTA` ; param system: ATP; output switch fluorescence ratio: 0.974

Param item: `ACGGGTATTG` ; param system: ATP; output switch fluorescence ratio: 1.02

Param item: `TTTTGTATTC` ; param system: ATP; output switch fluorescence ratio: 1.05

Param item: `TAACGTGAGT` ; param system: ATP; output switch fluorescence ratio: 0.988

Param item: `AGGTGTCGCG` ; param system: ATP; output switch fluorescence ratio: 1.01

Param item: `AAAATATTTG` ; param system: ATP; output switch fluorescence ratio: 0.964

Param item: `ACGGGAATTG` ; param system: ATP; output switch fluorescence ratio: 1.04

Param item: `GCCGGACATT` ; param system: ATP; output switch fluorescence ratio: 0.998

Param item: `ATAAGCGCAG` ; param system: ATP; output switch fluorescence ratio: 1.01

Param item: `GGTGGTTGTA` ; param system: ATP; output switch fluorescence ratio: 0.919

Param item: `GTGGTTTTCG` ; param system: ATP; output switch fluorescence ratio: 1.03

Param item: `TGTATGGGAA` ; param system: ATP; output switch fluorescence ratio: 0.935

Param item: `GTGAAAAGGG` ; param system: ATP; output switch fluorescence ratio: 0.963

Param item: `TGCGTACTAT` ; param system: ATP; output switch fluorescence ratio: 1.06

Param item: `GAAATTGGCA` ; param system: ATP; output switch fluorescence ratio: 1.03

Param item: `TTGTTGGTGG` ; param system: ATP; output switch fluorescence ratio: 0.986

Param item: `ATGTTTGGGA` ; param system: ATP; output switch fluorescence ratio: 0.967

Param item: `TTAATTGAAG` ; param system: ATP; output switch fluorescence ratio: 0.958

Param item: `ATCAACACCG` ; param system: ATP; output switch fluorescence ratio: 1.06

Param item: `GTTGTAAAGA` ; param system: ATP; output switch fluorescence ratio: 0.98

Param item: `GGGCAAGGTC` ; param system: ATP; output switch fluorescence ratio: 1.03

Param item: `TAGGAAAGTG` ; param system: ATP; output switch fluorescence ratio: 1.03

Param item: `CTTAAAGTGC` ; param system: ATP; output switch fluorescence ratio: 1.05

Param item: `TCAATAGATG` ; param system: ATP; output switch fluorescence ratio: 0.998

Param item: `CACGAAGGTG` ; param system: ATP; output switch fluorescence ratio: 1.16

Param item: `GTGTATAGGA` ; param system: ATP; output switch fluorescence ratio: 0.986

Param item: `CTTGGCTGTT` ; param system: ATP; output switch fluorescence ratio: 0.986

Param item: `TATTGTGTCG` ; param system: ATP; output switch fluorescence ratio: 1.02

Param item: `CATGGATACA` ; param system: ATP; output switch fluorescence ratio: 0.978

Param item: `CAATAAATAG` ; param system: ATP; output switch fluorescence ratio: 1

Param item: `TTGCTTAGTT` ; param system: ATP; output switch fluorescence ratio: 1

Param item: `TGAGTAACAG` ; param system: ATP; output switch fluorescence ratio: 0.981

Param item: `TGATGGGGTA` ; param system: ATP; output switch fluorescence ratio: 1.04

Param item: `GCCACAGCTG` ; param system: ATP; output switch fluorescence ratio: 1

Param item: `AACGCGTCTG` ; param system: ATP; output switch fluorescence ratio: 1.01

Param item: `CATAGGGGAC` ; param system: ATP; output switch fluorescence ratio: 0.978

Param item: `AGCATAAGC` ; param system: ATP; output switch fluorescence ratio: 1.04

Param item: `TATCTCTGGG` ; param system: ATP; output switch fluorescence ratio: 1.02

Param item: `GGTTTTTAGA` ; param system: ATP; output switch fluorescence ratio: 1

Param item: `GGACTTGTCT` ; param system: ATP; output switch fluorescence ratio: 1.01

Param item: `CTACGCCTGG` ; param system: ATP; output switch fluorescence ratio: 1.66

Param item: `TTCGGTAAGG` ; param system: ATP; output switch fluorescence ratio: 1.02

Param item: `TGAGTTTGCG` ; param system: ATP; output switch fluorescence ratio: 1.01

Param item: `TCACACAGGC` ; param system: ATP; output switch fluorescence ratio: 1.08

Param item: `TGTTTAGGGG` ; param system: ATP; output switch fluorescence ratio: 1.01

Param item: `CTAGGTATAG` ; param system: ATP; output switch fluorescence ratio: 1.01

Param item: `CCATGGCTGG` ; param system: ATP; output switch fluorescence ratio: 1

Param item: `GAAATCGTTC` ; param system: ATP; output switch fluorescence ratio: 1.02

Param item: `CAGTGGAGTG` ; param system: ATP; output switch fluorescence ratio: 0.986

Param item: `GATTGGAGCA` ; param system: ATP; output switch fluorescence ratio: 1.02

Param item: `GTATGCGTGT` ; param system: ATP; output switch fluorescence ratio: 1.04

Param item: `GGGGTTAGGA` ; param system: ATP; output switch fluorescence ratio: 0.979

Param item: `GTTATAAGTT` ; param system: ATP; output switch fluorescence ratio: 1.06

Param item: `AGGGAGTCTC` ; param system: ATP; output switch fluorescence ratio: 0.98

Param item: `ACTATGGGGC` ; param system: ATP; output switch fluorescence ratio: 1.01

Param item: `ACAAATTGTT` ; param system: ATP; output switch fluorescence ratio: 1.09

Param item: `GGCGTCGAGG` ; param system: ATP; output switch fluorescence ratio: 0.997

Param item: `GGCGGGTGCG` ; param system: ATP; output switch fluorescence ratio: 0.984

Param item: `TTTGTACCCT` ; param system: ATP; output switch fluorescence ratio: 1.06

Param item: `CGGTATTTTT` ; param system: ATP; output switch fluorescence ratio: 1.02

Param item: `TGTATTTGGG` ; param system: ATP; output switch fluorescence ratio: 0.991

Param item: `GAAGTGTGTG` ; param system: ATP; output switch fluorescence ratio: 1

Param item: `AATCGTGTAT` ; param system: ATP; output switch fluorescence ratio: 0.983

Param item: `AACCTCACGC` ; param system: ATP; output switch fluorescence ratio: 1.73

Param item: `GTGTTGGGGT` ; param system: ATP; output switch fluorescence ratio: 0.986

Param item: `GGTTTTGATG` ; param system: ATP; output switch fluorescence ratio: 0.98

Param item: `TTATTGGCAA` ; param system: ATP; output switch fluorescence ratio: 1.29

Param item: `CGGCGGGGGC` ; param system: ATP; output switch fluorescence ratio: 0.998

Param item: `GATATACCTT` ; param system: ATP; output switch fluorescence ratio: 1.15
